The reported numbers originate from ChEMBL document CHEMBL1130200.

- Assay target: Growth factor receptor-bound protein 2 (Homo sapiens)
- Sequence (P62993 whole entry, the tested form may be a part): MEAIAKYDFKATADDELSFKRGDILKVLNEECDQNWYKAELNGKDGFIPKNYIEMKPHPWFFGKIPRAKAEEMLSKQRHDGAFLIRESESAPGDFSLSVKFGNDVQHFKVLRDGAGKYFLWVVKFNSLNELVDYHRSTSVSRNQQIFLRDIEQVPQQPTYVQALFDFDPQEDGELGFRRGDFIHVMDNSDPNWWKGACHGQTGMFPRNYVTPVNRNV
- Experimental details: Inhibition of Grb2-SH2 domain binding to phospho-EGF receptor intracellular C-terminal domain
Where a SMILES comes first, the peptide text is derived from it. [ ]: non-standard residue; d: D form. pY = N[C@@H](Cc1ccc(OP(=O)(O)O)cc1)C(=O)O; 2Abz = Nc1ccccc1C(=O)O
Readout type: log10 IC50 (log10 of the value in µM)
Use the decimal logarithm of IC50 (µM).

// returns reported log10 IC50 for input CC[C@H](C)[C@H](NC(=O)[C@H](Cc1ccc(OP(=O)(O)O)cc1)NC(C)=O)C(=O)N[C@@H](CC(N)=O)C(N)=O (Ac-[pY]-Ile-Asn-NH2)
0.94

Now this one: CC[C@H](C)[C@H](NC(=O)[C@@H](N)Cc1ccc(OP(=O)(O)O)cc1)C(=O)N[C@@H](CC(N)=O)C(N)=O (H-[pY]-Ile-Asn-NH2)
1.76

Now this one: CC[C@H](C)[C@H](NC(=O)[C@H](Cc1ccc(OP(=O)(O)O)cc1)NC(=O)[C@H](CCC(=O)O)NC(=O)c1ccccc1N)C(=O)N[C@@H](CC(N)=O)C(N)=O (H-[2Abz]E[pY]IN-NH2)
-1.66
